Reference source: patent US6376485B1

The following compounds are shown together with reported melting point values.
API: value field is a number in °C; no unit string.

| Compound | Numeric Readout |
| --- | --- |
| COc1ccc(C2(C#N)CCC(O)CC2)c2nc(C(C)C)oc12 (stereo not shown) | 116.5 |
| COc1ccc(C2(C#N)CCOCC2)c2nc(C(C)C)oc12 | 156.5 |
| COc1ccc(C2(C#N)CCC(C(=O)O)CC2)c2nc(C(C)C)oc12 (stereo not shown) | 217.5 |

Request: Need melting point, item "COc1ccc(C2(C#N)CCOCC2)c2nc(C)oc12"
Response: 72

Request: Same lookup for COc1ccc(C2(C#N)CCC(C(N)=O)CC2)c2nc(C(C)C)oc12 (stereo not shown) , please.
Response: 228

Request: Can you check COC(=O)C1CCC(C#N)(c2ccc(OC)c3oc(C(C)C)nc23)CC1 (stereo not shown) next?
Response: 83

Request: # repeat for "COc1ccc(C2(C#N)CCC(=O)CC2)c2nc(C(C)C)oc12"
Response: 118
